assay: refractive index (Na D-line) (dimensionless); conditions: 293.15 K; 101.33 kPa; Liquid; Standard Abbe refractometry
quantity_kind: refractive index

compound: CC(C)=O
refractive index: 1.359

compound: CCOC(C)=O [ethyl acetate]
refractive index: 1.3719

compound: CC#N
refractive index: 1.343

compound: ClCCl
refractive index: 1.4237

compound: CC(=O)O
refractive index: 1.3718

----------
conditions: 293.15 K; 101.33 kPa; Liquid
quantity_kind: mass density (kg/m3)

molecule: CC#N
readout_units: kg/m3
mass density: 783
--
molecule: CCOC(C)=O [ethyl acetate]
readout_units: kg/m3
mass density: 899
--
molecule: ClCCl
readout_units: kg/m3
mass density: 1321
--
molecule: CC(=O)O
readout_units: kg/m3
mass density: 1050
--
molecule: CC(C)=O
readout_units: kg/m3
mass density: 790
